Biological target: ATP-dependent translocase ABCB1 (Homo sapiens, UniProt P08183)
Sequence (P08183 whole entry): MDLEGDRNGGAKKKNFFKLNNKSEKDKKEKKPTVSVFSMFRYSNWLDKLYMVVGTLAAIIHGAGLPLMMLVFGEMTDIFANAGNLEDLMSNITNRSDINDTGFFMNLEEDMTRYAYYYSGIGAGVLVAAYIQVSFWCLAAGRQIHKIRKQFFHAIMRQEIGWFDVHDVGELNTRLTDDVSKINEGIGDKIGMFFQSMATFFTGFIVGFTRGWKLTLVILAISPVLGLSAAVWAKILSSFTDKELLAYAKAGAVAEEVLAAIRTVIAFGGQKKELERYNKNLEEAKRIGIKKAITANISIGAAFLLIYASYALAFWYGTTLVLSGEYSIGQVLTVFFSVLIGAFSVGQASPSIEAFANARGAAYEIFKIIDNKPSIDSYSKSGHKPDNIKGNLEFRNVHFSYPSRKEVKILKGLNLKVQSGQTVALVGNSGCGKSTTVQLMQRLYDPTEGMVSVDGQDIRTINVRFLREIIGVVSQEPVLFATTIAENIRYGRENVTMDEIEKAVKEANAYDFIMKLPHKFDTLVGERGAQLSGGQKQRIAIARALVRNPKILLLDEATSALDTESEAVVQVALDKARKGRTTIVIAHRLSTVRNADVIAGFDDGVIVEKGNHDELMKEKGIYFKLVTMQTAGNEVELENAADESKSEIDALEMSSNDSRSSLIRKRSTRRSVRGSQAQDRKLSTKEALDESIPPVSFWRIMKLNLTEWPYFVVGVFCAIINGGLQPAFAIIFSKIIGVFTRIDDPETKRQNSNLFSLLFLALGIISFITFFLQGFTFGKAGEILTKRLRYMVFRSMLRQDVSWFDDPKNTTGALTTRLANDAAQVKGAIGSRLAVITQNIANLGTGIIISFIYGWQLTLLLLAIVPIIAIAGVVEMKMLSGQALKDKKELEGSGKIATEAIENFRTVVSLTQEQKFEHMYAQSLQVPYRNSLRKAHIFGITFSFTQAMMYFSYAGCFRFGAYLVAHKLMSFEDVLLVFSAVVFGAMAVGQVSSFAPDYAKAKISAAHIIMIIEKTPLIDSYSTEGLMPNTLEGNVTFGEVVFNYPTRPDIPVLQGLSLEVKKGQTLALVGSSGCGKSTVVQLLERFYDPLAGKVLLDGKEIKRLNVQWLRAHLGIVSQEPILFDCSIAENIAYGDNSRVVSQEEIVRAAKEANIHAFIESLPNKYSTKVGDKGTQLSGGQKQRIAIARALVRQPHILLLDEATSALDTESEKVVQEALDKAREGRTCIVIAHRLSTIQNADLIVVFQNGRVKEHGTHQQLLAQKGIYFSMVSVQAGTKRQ
Assay: Inhibition of P-gp in human U87-TxR cells assessed as increase in Rho123 accumulation at 5 uM measured after 30 mins by flow cytometry
Format: cell-based
Conditions: 0.5 h
MEASURED_METRIC: inhibition (INH)

| COMPOUND | OBSERVED_VALUE |
| --- | --- |
| CN(CCOC(=O)/C=C/C(=O)c1ccc(F)cc1)C(C(=O)NC(C)(C)C)c1ccccc1F (configuration not stated) | Active |
| CCN(CCOC(=O)/C=C/C(=O)c1ccc(F)cc1)C(C(=O)NC(C)(C)C)c1cccc(C)c1 (configuration not stated) | Active |
| Cc1cccc(C(C(=O)NC2CCCCC2)N(C)CCOC(=O)/C=C/C(=O)c2ccc(F)cc2)c1 (configuration not stated) | Active |
| Cc1ccc(C(=O)/C=C/C(=O)OCCN(C)C(C(=O)NC2CCCCC2)c2ccc(F)cc2)cc1 (configuration not stated) | Active |
| Cc1cccc(C(C(=O)NC(C)(C)C)N(C)CCOC(=O)/C=C/C(=O)c2ccc(F)cc2)c1 (configuration not stated) | Active |
| Cc1ccc(C(C(=O)NC(C)(C)C)N(C)CCOC(=O)/C=C/C(=O)c2ccc(F)cc2)cc1 (configuration not stated) | Active |
| CN(CCOC(=O)/C=C/C(=O)c1ccc(F)cc1)C(C(=O)NC(C)(C)C)c1ccc(F)c(F)c1 (configuration not stated) | Active |

----------
Known inhibition of a selection of compounds
Tested on: SH-SY5Y
Assay: Inhibition of TrxR in human SH-SY5Y cell lysates at 5 uM using DTNB as substrate preincubated for 15 mins followed by substrate addition and measured for 20 mins by colorimetry relative to control
Type: subcellular
Settings: time 35.0 min
MEASURED_METRIC: inhibition (%)

| COMPOUND | OBSERVED_VALUE |
| --- | --- |
| Cc1cccc(C(C(=O)NC2CCCCC2)N(C)CCOC(=O)/C=C/C(=O)c2ccc(F)cc2)c1 (configuration not stated) | 53 |
| Cc1cccc(C(C(=O)NC(C)(C)C)N(C)CCOC(=O)/C=C/C(=O)c2ccc(F)cc2)c1 (configuration not stated) | 33 |
| CN(CCOC(=O)/C=C/C(=O)c1ccc(F)cc1)C(C(=O)NC(C)(C)C)c1ccc(F)c(F)c1 (configuration not stated) | 84.6 |
| CN(CCOC(=O)/C=C/C(=O)c1ccc(F)cc1)C(C(=O)NC(C)(C)C)c1ccccc1F (configuration not stated) | 64 |
| Cc1ccc(C(=O)/C=C/C(=O)OCCN(C)C(C(=O)NC2CCCCC2)c2ccc(F)cc2)cc1 (configuration not stated) | 68.8 |
| Cc1ccc(C(C(=O)NC(C)(C)C)N(C)CCOC(=O)/C=C/C(=O)c2ccc(F)cc2)cc1 (configuration not stated) | 82.7 |
| CCN(CCOC(=O)/C=C/C(=O)c1ccc(F)cc1)C(C(=O)NC(C)(C)C)c1cccc(C)c1 (configuration not stated) | 50.2 |
